# Test system: umbrella sedge (Cyperus difformis)
# Run Description: Test B flooded paddy test
# Format: in vivo
# Details: Flood (flooded paddy test), 31 g ai/ha; scale of 0 to 100 where 0 is no effect and 100 is complete control; 13 to 15 days
The following compounds are listed with their measured Plant response rating, Sedge, Umbrella values.
Result Type: Plant response rating, Sedge, Umbrella

>>> df
                                   compound                             result_type  reading
0  C=CCn1c(-c2ccccc2)ncc(C(=O)C2=C(O)CCCC2=O)c1=O  Plant response rating, Sedge, Umbrella       20
1  Cc1cc(C)cc(-n2c(-c3ccccc3)ncc(C(=O)C3=C(O)CCCC3=O)c2=O)c1  Plant response rating, Sedge, Umbrella       20
2  O=C1CCCC(O)=C1C(=O)c1cnc(-c2ccccc2)n(CC2CCCO2)c1=O (centres unmarked)  Plant response rating, Sedge, Umbrella       30
3  Cc1ccccc1-n1c(-c2ccccc2)ncc(C(=O)C2=C(O)CCCC2=O)c1=O  Plant response rating, Sedge, Umbrella       20
4  Cn1c(-c2ccccc2)ncc(C(=O)C2=C(O)CCCC2=O)c1=O  Plant response rating, Sedge, Umbrella        0

----------
# System: kochia (Kochia scoparia)
# Run Description: Test B pre-/postemergence plant response
# Assay type: in vivo
# Details: Preemergence, 125 g ai/ha; scale 0 to 100, 0 no effect, 100 complete control
Result Type: Plant response rating, Kochia

                               smiles_input  reading
0  CCCCc1ncc(C(=O)C2=C(O)CCCC2=O)c(=O)n1-c1ccc(C)cc1       80
1  CCCn1c(-c2cccs2)ncc(C(=O)C2=C(O)CCCC2=O)c1=O       90
2  O=C1CCCC(O)=C1C(=O)c1cnc(-c2cccc(Cl)c2)n(-c2ccc(Cl)cc2)c1=O       45
3  COCCCn1c(-c2cc(F)cc(F)c2)ncc(C(=O)C2=C(O)CCCC2=O)c1=O       50

----------
The following compounds are listed with their measured Plant response rating, Prickly Sida values.
# System: prickly sida (Sida spinosa)
# Run Description: Test D pre-/postemergence plant response
# Type: in vivo
# Details: Postemergence, 125 g ai/ha; scale 0 to 100 (0 no effect, 100 complete control)
Result Type: Plant response rating, Prickly Sida

In [3]: df
Out[3]:
                                   compound               assayed_target  reading
0  COCCn1c(-c2cccc(C)c2)ncc(C(=O)C2=C(O)C3CCC(C3)C2=O)c1=O (stereo not shown)  prickly sida (Sida spinosa)       60
1  COCCn1c(-c2cccc(F)c2)ncc(C(=O)C2=C(O)C3CCC(C3)C2=O)c1=O (stereo not shown)  prickly sida (Sida spinosa)       70
2  O=C1CCCC(O)=C1C(=O)c1cnc(-c2ccccc2)n(CC2CCCO2)c1=O (stereo not shown)  prickly sida (Sida spinosa)       70
3  COCCn1c(-c2cc(F)cc(F)c2)ncc(C(=O)C2=C(O)C3CCC(C3)C2=O)c1=O (stereo not shown)  prickly sida (Sida spinosa)       70

----------
# System: ragweed (common ragweed, Ambrosia elatior)
# Run Description: Test B pre-/postemergence plant response
# Type: in vivo
# Details: Postemergence, 125 g ai/ha; scale 0 to 100 (0 no effect, 100 complete control)
The following compounds are listed with their measured Plant response rating, Ragweed values.
Result Type: Plant response rating, Ragweed

In [3]: df
Out[3]:
                                   compound  reading
0  COCC(C)n1c(-c2ccccc2)ncc(C(=O)C2=C(O)CCCC2=O)c1=O (centres unmarked) [Compound 107]       95
1  O=C1CCCC(O)=C1C(=O)c1cnc(-c2cccc(F)c2)n(C2CCCCC2)c1=O [Compound 187]      100
2  Cc1ccc(F)cc1-n1c(-c2cccc(Cl)c2)ncc(C(=O)C2=C(O)CCCC2=O)c1=O [Compound 157]      100
3  COCCn1c(-c2cccc(Cl)c2)ncc(C(=O)C2=C(O)CCCC2=O)c1=O [Compound 147]       90
4  O=C1CCCC(O)=C1C(=O)c1cnc(-c2cc(F)cc(F)c2)n(C2CCCCC2)c1=O [Compound 181]      100
